Every entry's value here was drawn from the supplement of paper PMC8728848.

For each record, write down the corresponding glycan array binding signal (z-score).
- TEST_SYSTEM: Neu5Gc(a2-3)Gal(b1-4)GlcNAc(b1-3)Gal(b1-4)GlcNAc(b1-2)Man(a1-3)[Neu5Gc(a2-3)Gal(b1-4)GlcNAc(b1-3)Gal(b1-4)GlcNAc(b1-2)Man(a1-6)]Man(b1-4)GlcNAc(b1-4)GlcNAc
- METHOD_DESCRIPTION: glycan array binding signal (z-score within array); higher = stronger binding
- MEASUREMENT_SETUP: glycan notation: IUPAC condensed, linker removed
The entries come from a sample that favours the strongest signals as a whole.
Please state the value as a number alone, without comment.

# return recorded glycan array binding signal (z-score) for input CTAEGIKKFEGDGYELFKDNFPAGEKFDNDDTNDQFYTVIF [MUB40 (Lactobacillus reuteri)]
2.75

# return recorded glycan array binding signal (z-score) for input MAA (Maackia amurensis), P0DKL3 (protein) MATSNSKPTQVLLATFLTFFFLLLNNVNSSDELSFTINNFVPNEADLLFQGEASVSSTGVLQLTRVENGQPQKYSVGRALYAAPVRIWDNTTGSVASFSTSFTFVVKAPNPDITSDGLAFYLAPPDSQIPSGSVSKYLGLFNNSNSDSSNQIVAVELDTYFAHSYDPWDPNYRHIGIDVNGIESIKTVQWDWINGGVAFATITYLAPNKTLIASLVYPSNQTTFSVAASVDLKEILPEWVRVGFSAATGYPTEVETHDVLSWSFTSTLEANCDAATENNVHIARYTA
2.07

# return recorded glycan array binding signal (z-score) for input Gal 3C (Homo sapiens), P17931 (protein) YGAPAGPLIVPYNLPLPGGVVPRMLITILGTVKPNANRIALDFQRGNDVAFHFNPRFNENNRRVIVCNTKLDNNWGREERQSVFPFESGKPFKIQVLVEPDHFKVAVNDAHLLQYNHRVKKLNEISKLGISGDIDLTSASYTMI
-0.152

# return recorded glycan array binding signal (z-score) for input EULS2 M4 (Oryza sativa) (protein) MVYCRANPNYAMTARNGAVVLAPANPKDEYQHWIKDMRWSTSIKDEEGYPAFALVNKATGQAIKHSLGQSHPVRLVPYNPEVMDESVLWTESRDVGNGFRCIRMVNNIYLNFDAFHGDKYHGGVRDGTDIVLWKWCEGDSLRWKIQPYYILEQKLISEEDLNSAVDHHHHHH
-0.344

# return recorded glycan array binding signal (z-score) for input Nictaba (Nicotiana tabacum), Q94EW1 (protein) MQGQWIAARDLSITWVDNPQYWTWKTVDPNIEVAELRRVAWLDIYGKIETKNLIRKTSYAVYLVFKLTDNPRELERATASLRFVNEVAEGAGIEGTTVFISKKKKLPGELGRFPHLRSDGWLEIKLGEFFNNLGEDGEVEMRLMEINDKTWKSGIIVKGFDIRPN
0.883

# return recorded glycan array binding signal (z-score) for input Cohesin-hMARCO (Homo sapiens) (protein) LDDLDAVRIKVDTVNAKPGDTVRIPVRFSGIPSKGIANCDFVYSYDPNVLEIIEIEPGDIIVDPNPDKSFDTAVYPDRKIIVFLFAEDSGTGAYAITKDGVFATIVAKVKEGAPNGLSVIKFVEVGGFANNDLVEQKTQFFDGGANVGDTTEPATPTTPVTTPTTTDDLDAASVRIVGSSNRGRAEVYYSGTWGTICDDEWQNSDAIVFCRMLGYSKGRALYKVGAGTGQIWLDNVQCRGTESTLWSCTKNSWGHHDCSHEEDAGVECSVHHHHHH
0.016
